- assayed system: CRBN-DDB1 (Homo sapiens)
- Sequence (Q96SW2 whole entry): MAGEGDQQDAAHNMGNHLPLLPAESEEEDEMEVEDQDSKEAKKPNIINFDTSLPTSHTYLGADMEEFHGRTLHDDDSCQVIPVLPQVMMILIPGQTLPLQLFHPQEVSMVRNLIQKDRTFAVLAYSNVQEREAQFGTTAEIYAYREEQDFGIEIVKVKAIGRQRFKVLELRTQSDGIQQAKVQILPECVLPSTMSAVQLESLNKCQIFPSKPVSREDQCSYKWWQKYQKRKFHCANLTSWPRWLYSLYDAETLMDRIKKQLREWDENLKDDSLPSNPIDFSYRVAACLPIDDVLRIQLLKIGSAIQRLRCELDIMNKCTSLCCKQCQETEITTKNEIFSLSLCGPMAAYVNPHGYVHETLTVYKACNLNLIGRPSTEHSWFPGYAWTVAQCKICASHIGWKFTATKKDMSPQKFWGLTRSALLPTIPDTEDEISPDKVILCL
- Sequence (Q16531 whole entry partner): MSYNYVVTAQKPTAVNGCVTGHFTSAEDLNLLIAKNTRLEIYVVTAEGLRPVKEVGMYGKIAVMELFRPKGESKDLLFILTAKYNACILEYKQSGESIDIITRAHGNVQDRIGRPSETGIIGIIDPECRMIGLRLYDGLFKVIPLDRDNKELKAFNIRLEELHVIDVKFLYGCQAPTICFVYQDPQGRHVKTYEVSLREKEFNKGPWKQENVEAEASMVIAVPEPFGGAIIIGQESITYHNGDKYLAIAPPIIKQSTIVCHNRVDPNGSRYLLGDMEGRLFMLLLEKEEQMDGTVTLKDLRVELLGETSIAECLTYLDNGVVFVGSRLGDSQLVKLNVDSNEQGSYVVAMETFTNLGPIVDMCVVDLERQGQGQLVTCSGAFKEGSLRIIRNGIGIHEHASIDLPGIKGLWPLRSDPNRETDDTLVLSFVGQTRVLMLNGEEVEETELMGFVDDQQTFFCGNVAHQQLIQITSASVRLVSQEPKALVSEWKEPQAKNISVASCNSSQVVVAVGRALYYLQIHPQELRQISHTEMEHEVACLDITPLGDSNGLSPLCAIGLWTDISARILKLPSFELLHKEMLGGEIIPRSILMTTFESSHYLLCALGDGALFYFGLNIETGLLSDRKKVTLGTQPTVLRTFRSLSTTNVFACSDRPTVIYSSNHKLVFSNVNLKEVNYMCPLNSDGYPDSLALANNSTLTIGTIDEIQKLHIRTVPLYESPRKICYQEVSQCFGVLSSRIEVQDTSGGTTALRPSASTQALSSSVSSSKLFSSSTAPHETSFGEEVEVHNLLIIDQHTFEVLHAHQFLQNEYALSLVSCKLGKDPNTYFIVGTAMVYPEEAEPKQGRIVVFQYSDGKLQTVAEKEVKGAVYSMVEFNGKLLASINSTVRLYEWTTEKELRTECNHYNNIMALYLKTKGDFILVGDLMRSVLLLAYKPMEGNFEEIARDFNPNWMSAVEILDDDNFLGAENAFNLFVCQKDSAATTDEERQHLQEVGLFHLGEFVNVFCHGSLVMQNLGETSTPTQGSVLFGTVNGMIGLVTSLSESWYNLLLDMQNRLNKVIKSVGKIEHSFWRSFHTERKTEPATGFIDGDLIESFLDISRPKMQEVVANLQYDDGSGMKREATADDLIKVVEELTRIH
- experiment: HTRF binding of compounds to CRBN
- reported conditions: read-out: HTRF Class (Cereblon binding, HTRF IC50)
pIC50: −log10 of the molar value.
quantity: pIC50

Worked examples, 10 molecules total:
{"molecule": "O=C1CCC(N2Cc3ccc(COC(=O)Nc4cc(F)cc5c4OCC5)cc3C2=O)C(=O)N1 (stereo not drawn)", "result value": "> 7.00"}
{"molecule": "Cc1cc(NC(=O)OCc2ccc3c(c2)C(=O)N(C2CCC(=O)NC2=O)C3)ncc1N1CCC[C@H]1C (stereo partly drawn)", "result value": "> 7.00"}
{"molecule": "CCCOc1cc(NC(=O)OCc2ccc3c(c2)C(=O)N(C2CCC(=O)NC2=O)C3)c(F)cc1C (stereo not drawn)", "result value": "> 7.00"}
{"molecule": "O=C1CCC(N2Cc3ccc(COC(=O)NC45C6C7C4C4C5C6C74c4ccccc4)cc3C2=O)C(=O)N1 (stereo not drawn)", "result value": "> 7.00"}
{"molecule": "O=C1CCC(N2Cc3ccc(COC(=O)NC45CC(CF)(C4)C5)cc3C2=O)C(=O)N1 (stereo not drawn)", "result value": "6.00 to 7.00"}
{"molecule": "CCCOc1ccc(F)c(NC(=O)OCc2ccc3c(c2)C(=O)N(C2CCC(=O)NC2=O)C3)c1 (stereo not drawn)", "result value": "6.00 to 7.00"}
{"molecule": "O=C1CCC(N2Cc3ccc(COC(=O)NC45CC(c6ccccc6F)(C4)C5)cc3C2=O)C(=O)N1 (stereo not drawn)", "result value": "> 7.00"}
{"molecule": "CC(C)(C)[C@H]1C[C@@H](NC(=O)OCc2ccc3c(c2)C(=O)N(C2CCC(=O)NC2=O)C3)C1 (stereo partly drawn)", "result value": "6.00 to 7.00"}
{"molecule": "O=C1CCC(N2Cc3ccc(COC(=O)N[C@H]4C[C@@H](c5ccccc5)C4)cc3C2=O)C(=O)N1 (stereo partly drawn)", "result value": "> 7.00"}
{"molecule": "O=C1CCC(N2Cc3ccc(COC(=O)Nc4ccc(C5CCC5)cn4)cc3C2=O)C(=O)N1 (stereo not drawn)", "result value": "6.00 to 7.00"}

**Q:** Can you look up the measured pIC50 of CC(C)Oc1ccc(F)c(NC(=O)OCc2ccc3c(c2)C(=O)N(C2CCC(=O)NC2=O)C3)c1 (stereo not drawn) for me?
**A:** > 7.00

**Q:** Can you look up the measured pIC50 of Cc1cc(F)c(NC(=O)OCc2ccc3c(c2)C(=O)N(C2CCC(=O)NC2=O)C3)c(F)c1 (stereo not drawn) for me?
**A:** > 7.00

**Q:** Can you look up the measured pIC50 of O=C1CCC(N2Cc3ccc(COC(=O)Nc4cc(OC(F)(F)F)c(F)cc4F)cc3C2=O)C(=O)N1 (stereo not drawn) for me?
**A:** 6.00 to 7.00

**Q:** Can you look up the measured pIC50 of CC1(c2ccc(NC(=O)OCc3ccc4c(c3)C(=O)N(C3CCC(=O)NC3=O)C4)cc2Cl)COC1 (stereo not drawn) for me?
**A:** > 7.00

**Q:** Can you look up the measured pIC50 of COC(=O)C12CC(NC(=O)OCc3ccc4c(c3)C(=O)N(C3CCC(=O)NC3=O)C4)(C1)C2 (stereo not drawn) for me?
**A:** 6.00 to 7.00

Where do these numbers come from? They come from patent US20230348418A1.
